# Tested Target: C-Rel subunit;p52 subunit (Homo sapiens;Homo sapiens, UniProt Q04864;Q00653 1-285;4-332)
# Sequence 1: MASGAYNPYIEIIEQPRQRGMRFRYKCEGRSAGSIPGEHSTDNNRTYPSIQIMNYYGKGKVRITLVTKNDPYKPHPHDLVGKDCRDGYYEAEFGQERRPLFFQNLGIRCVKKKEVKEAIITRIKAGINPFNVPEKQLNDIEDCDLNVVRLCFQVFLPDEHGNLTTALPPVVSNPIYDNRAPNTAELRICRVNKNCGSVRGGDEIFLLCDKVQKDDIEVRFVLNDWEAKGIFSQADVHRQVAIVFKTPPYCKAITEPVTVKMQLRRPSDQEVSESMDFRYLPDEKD
# Sequence 2: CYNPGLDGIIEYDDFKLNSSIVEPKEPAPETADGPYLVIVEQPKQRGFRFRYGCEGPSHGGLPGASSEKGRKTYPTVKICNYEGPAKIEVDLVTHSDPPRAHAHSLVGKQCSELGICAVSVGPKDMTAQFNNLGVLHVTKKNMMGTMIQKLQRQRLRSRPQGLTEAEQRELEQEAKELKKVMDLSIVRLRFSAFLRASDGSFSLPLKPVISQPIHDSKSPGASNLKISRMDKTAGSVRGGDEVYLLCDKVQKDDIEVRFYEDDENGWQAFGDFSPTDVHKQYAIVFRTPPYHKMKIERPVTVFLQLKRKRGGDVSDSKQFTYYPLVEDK
# Assay Overview: protein binding microarray; high values mean tight binding
# Settings: dsDNA, one strand shown
hey, just use true if measured binding signal is less than 0.4 z-score, otherwise false

Solved cases (2 shown):
CAGGGAGTCCT: true
CAGTTACTCCT: true

Next, consider the following sequence.
query: hey, is binding signal for GGATAGACCCC lower than 0.4 z-score or not?
result: true

====

Exercise: for every item that follows, state its recorded binding signal.
# Tested Target: C-Rel subunit;p50 subunit (Homo sapiens;Homo sapiens, UniProt Q04864;P19838 1-285;7-356)
# Assay Overview: protein binding microarray; high values mean tight binding
# Settings: dsDNA, one strand shown
One number for each entry, in z-score.

Please review the following examples before continuing.
CGAAGTTCCCT: 0.425
GGATAGTCCCT: 1.15
GAATTTGTCCC: 1.27

Below are some sequences; for each one, tell me its binding signal.
1. CAATTCCCCCC
2. GAGGGTTCCCT
3. AAGGAACCCCT
4. CGGTGCCTCCT

result:
1: 1.94; 2: -0.173; 3: 0.215; 4: -1.19

Below are some sequences; for each one, tell me its binding signal.
1. GAAAACGTCCT
2. CGGTTCCCCCC
3. CAGGAAACCCC
4. CGAATCGCCCT
5. CGGTAAACCCT
6. AAAAGGTCCCC
7. AAGATTCTCCT

result:
-0.823
1.85
1.04
-0.785
-0.122
0.454
-1.1

Below are some sequences; for each one, tell me its binding signal.
1. AAAGTGCCCCC
2. CGGGTAGTCCC
3. GGGATCGTCCT

result:
1. 0.964
2. 1.09
3. -0.493

Below are some sequences; for each one, tell me its binding signal.
1. AAATAAACCCT
2. GAAAGTGCCCC
3. CGAAAGTTCCT
4. CGGTGCTTCCC
5. CAGATCCCCCT
6. AAAGAATTCCC

result:
1. -0.324
2. 0.607
3. -0.537
4. 0.924
5. 1.85
6. 1.54
